Data provenance: ChEMBL document CHEMBL1201862

Provide the recorded EC50 for the entries that follow.
Tested on: Streptococcus
Assay: Group A Streptococcus viability loss, dose response, counter-screen for streptokinase expression inhibitor project, luminescence, BacTiterGlo (AID 1915);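 further: potency for reduction of bacterial viability or growth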
Format: functional, organism-based
Activity calls are given as the source filed them. No stated cut-off is given here; in the data, actives have a measured EC50 and inactives only a lower limit.

Solved cases below.
[[record]]
compound_smiles = "COc1ccccc1CN1CN(S(=O)(=O)c2ccccc2)c2nc3ccccc3nc21"
reported_value = "> 150 µM (not active)"

[[record]]
compound_smiles = "CCCCCCSc1cc(-c2nc3cnccn3c2NCc2ccccc2)ccc1OC"
reported_value = "12.9 µM (active)"

[[record]]
compound_smiles = "COc1cccc(/C=N/NC(=O)c2cc3c(OC)ccc(OC)c3[nH]2)c1O"
reported_value = "3.31 µM (active)"

[[record]]
compound_smiles = "CC1CCN(c2nc(-c3ccc(F)cc3)cc(C(F)(F)F)n2)CC1"
reported_value = "17.5 µM (active)"

[[record]]
compound_smiles = "COc1ccc(NC(=O)c2ccc3c(c2)NC(=O)CS3)cc1S(=O)(=O)Nc1ccc(Br)cc1"
reported_value = "26.3 µM (active)"


Batch lookup, EC50 per entry.
1. O=[N+]([O-])c1cc(C(F)(F)F)ccc1NCCN=C(S)Nc1ccc(Cl)cc1
2. CC(C)C(=O)N1CCN(c2ccccc2NC(=O)COc2ccc(C3CCCCC3)cc2)CC1

Result:
7.65 µM (active)
> 150 µM (not active)
